Molecular target: B7H3 on Weri-RB1 cells (UniProt Q5ZPR3)
Sequence: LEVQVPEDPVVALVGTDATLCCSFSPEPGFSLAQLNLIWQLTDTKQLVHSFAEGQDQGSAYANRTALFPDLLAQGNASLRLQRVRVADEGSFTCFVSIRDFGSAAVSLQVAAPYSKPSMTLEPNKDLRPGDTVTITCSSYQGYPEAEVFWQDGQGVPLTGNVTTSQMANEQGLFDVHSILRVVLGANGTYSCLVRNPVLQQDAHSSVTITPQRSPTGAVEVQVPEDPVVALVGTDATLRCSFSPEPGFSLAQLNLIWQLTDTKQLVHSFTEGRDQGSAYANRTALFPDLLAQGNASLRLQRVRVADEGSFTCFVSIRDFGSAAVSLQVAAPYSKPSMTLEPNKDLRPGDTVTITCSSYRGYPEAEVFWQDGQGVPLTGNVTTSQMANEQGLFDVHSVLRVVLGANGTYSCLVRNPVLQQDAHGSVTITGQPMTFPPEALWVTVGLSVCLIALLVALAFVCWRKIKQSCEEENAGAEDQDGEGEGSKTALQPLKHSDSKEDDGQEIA
Experiment: flow cytometry
Details: FITC aptamer, ABB: AWB (composition not given) + 0.1 mg/ml yeast tRNA, 0.1 mg/ml salmon sperm DNA, 5% FBS, 1 mg/ml BSA, 60 min, 0-500 nM …, flow binding assay on ice, d
This section presents sequences with their documented Kd values.
Number only, in nM; omit the unit.

>  <RESIDUE STRING>
TAGGGAAGAGAAGGACATATGATACAGCACGGTATGACGAGTCCATTGTGTGTGCAGCTCGCTAATTGACTAGTACATGACCACTT [VRF-HS_B7H3-01]

>  <Kd / nM>
32.1

$$$$
>  <RESIDUE STRING>
TAGGGAAGAGAAGGACATATGATTGCCCCTGACACTTACACGCCACTATCAAGGCACACGCCATTGACTAGTACATGACCACTT [VRF-HS_B7H3-04]

>  <Kd / nM>
51.4

$$$$
>  <RESIDUE STRING>
TAGGGAAGAGAAGGACATATGATTGAGAAGTCACGCCACTTACCTGCGCTCAAAACCTCAGAATTGACTAGTACATGACCACTT [VRF-HS_B7H3-05]

>  <Kd / nM>
50.6

$$$$
>  <RESIDUE STRING>
TAGGGAAGAGAAGGACATATGATCGCCCCTCTTTTCGATTTCAAGCTCCTAACCCACACCTCTTTGACTAGTACATGACCACTT [VRF-HS_B7H3-02]

>  <Kd / nM>
47.2

$$$$

Let's switch to this sequence now.
IN: Output measured Kd for this item: TAGGGAAGAGAAGGACATATGATATAAGTGACACATCAATCTCATGCGGATGAACCAGTGCGTTTGACTAGTACATGACCACTT [VRF-HS_B7H3-03]
OUT: 46.6
